Target Or Test System: rat NaCT (Rattus norvegicus)
Sequence (Q8CJ44 whole entry): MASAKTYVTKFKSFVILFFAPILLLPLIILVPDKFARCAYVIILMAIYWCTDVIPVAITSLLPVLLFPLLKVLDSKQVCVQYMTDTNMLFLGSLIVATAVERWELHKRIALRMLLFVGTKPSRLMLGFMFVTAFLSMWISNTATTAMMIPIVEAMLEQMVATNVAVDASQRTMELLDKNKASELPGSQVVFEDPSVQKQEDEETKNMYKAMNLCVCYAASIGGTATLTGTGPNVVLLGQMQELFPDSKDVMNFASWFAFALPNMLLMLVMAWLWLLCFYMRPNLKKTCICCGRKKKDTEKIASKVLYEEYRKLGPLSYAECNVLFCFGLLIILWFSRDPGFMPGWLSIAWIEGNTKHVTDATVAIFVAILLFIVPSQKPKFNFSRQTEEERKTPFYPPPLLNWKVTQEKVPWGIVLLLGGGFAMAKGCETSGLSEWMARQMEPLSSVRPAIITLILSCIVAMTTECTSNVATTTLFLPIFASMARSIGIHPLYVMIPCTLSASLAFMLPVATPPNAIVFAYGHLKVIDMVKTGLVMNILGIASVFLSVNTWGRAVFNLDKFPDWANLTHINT
Test Details: Uptake via rat NaCT expressed in HRPE cells
Type: cell-based
Test Parameters: [14C]citrate 7 μM; rat NaCT cDNA-transfected HRPE; pH 7.5; indicated salt
Measured Endpoint: Citrate Uptake, cDNA (pmol/10^6 cells/min)
State just the number; it will be interpreted in pmol/10^6 cells/min.

Worked set:
[Cl-].[Li+] : 1.6
O=C([O-])[C@H](O)[C@@H](O)[C@H](O)[C@H](O)CO.[Na+] [Sodium gluconate] : 29.6
OC[C@@H](O)[C@@H](O)[C@H](O)[C@H](O)CO : 0.7
[Cl-].[Na+] : 38.8

Please turn your attention to the following entry.
Give recorded Citrate Uptake, cDNA. CNC[C@H](O)[C@@H](O)[C@H](O)[C@H](O)CO.Cl [NMDG chloride, N-methyl-D-glucamine chloride]
1.6
